Biological target: acetylcholine receptor
Experiment: SPR, peptide at 10 uM on immobilized AchR
Would you mind telling me the reported Binding affinity (RU) of each entry?
Be sure to follow the number with its unit.

Below, 5 binders whose answers are already recorded.
Q: Quick one: Binding affinity (RU) for KAPARK [6mer-2-1052] ?
Ans: 23 RU

Q: Quick one: Binding affinity (RU) for RIHNRK [6mer-2-1048] ?
Ans: 22 RU

Q: Quick one: Binding affinity (RU) for RFNVRK [6mer-2-1063] ?
Ans: 24 RU

Q: Quick one: Binding affinity (RU) for RTTWRK [6mer-2-1071] ?
Ans: 25 RU

Q: Quick one: Binding affinity (RU) for KHSWRR [6mer-2-1034] ?
Ans: 38 RU

For the next question, use this binder.
Q: Quick one: Binding affinity (RU) for REKPRK [6mer-2-1084] ?
Ans: 29 RU
